Test: Cmax in male Sprague-Dawley rat at 20 mg/kg, iv measured after 24 hrs by LC-MS/MS analysis
Type: ADME, organism-based
Conditions: in vivo
quantity.name: Cmax (ng/mL)
One number for each entry, in ng/mL.

### Prompt For CC(C)(C)c1ccc(NC(=O)NCCCN(CCCN2CCOCC2)CC2(O)CCN(c3nc(Cl)nc4sccc34)C2)cc1 (stereo unspecified) , what is its reported Cmax?
### Response 3000

====

Test system: NCI-H460
Assay: Antiproliferative activity against human NCI-H460 cells harboring wildtype DOT1L (unknown origin) (1 to 416 residues) assessed as inhibition of cell proliferation incubated for 72 hrs by CCK-8 assay
Assay type: functional, cell-based
Settings: NCI-H460, 72 h
Answer each item with its documented pIC50.
Answers are plain numbers, as −log10 of the molar value.

>>> measurement("CC(C)N(CCCNC(=O)Nc1ccc(C(C)(C)C)cc1)CC1(O)CCN(c2nc(Cl)nc3sccc23)C1 (centres undefined)")
5.12

### Prompt For CC(C)(C)c1ccc(NC(=O)NCCCN(CCC(=O)N2CCSCC2)CC2(O)CCN(c3nc(Cl)nc4[nH]ncc34)C2)cc1 (centres undefined) , what is its reported pIC50?
### Response 4.36

====

Test: Cmax in male Sprague-Dawley rat at 20 mg/kg, ip measured after 24 hrs by LC-MS/MS analysis
Type: ADME, organism-based
Settings: in vivo
quantity.name: Cmax (ng/mL)
Give bare numbers, in ng/mL.

### Prompt For CC(C)(C)c1ccc(NC(=O)NCCCN(CCCN2CCOCC2)CC2(O)CCN(c3nc(Cl)nc4sccc34)C2)cc1 (stereo unspecified) , what is its reported Cmax?
### Response 2570

====

Assay: Volume of distribution at steady state in male Sprague-Dawley rat at 20 mg/kg, iv measured after 24 hrs by LC-MS/MS analysis
Format: ADME, organism-based
Settings: in vivo, read-out: Vdss
quantity.name: Vd (L/kg)
Answers are plain numbers, in L/kg.

### Prompt For CC(C)(C)c1ccc(NC(=O)NCCCN(CCCN2CCOCC2)CC2(O)CCN(c3nc(Cl)nc4sccc34)C2)cc1 (stereo unspecified) , what is its reported Vd?
### Response 14.4

====

Test: Tmax in male Sprague-Dawley rat at 20 mg/kg, ip measured after 24 hrs by LC-MS/MS analysis
Type: ADME, organism-based
Settings: in vivo
quantity.name: Tmax

### Prompt For CC(C)(C)c1ccc(NC(=O)NCCCN(CCCN2CCOCC2)CC2(O)CCN(c3nc(Cl)nc4sccc34)C2)cc1 (stereo unspecified) , what is its reported Tmax?
### Response 15 min

====

Tested on: NCI-H460
Experiment: Antiproliferative activity against human NCI-H460 cells harboring wildtype DOT1L (unknown origin) (1 to 416 residues) assessed as inhibition of cell proliferation incubated for 72 hrs by CCK-8 assay
Assay type: functional, cell-based
Details: NCI-H460, 72 h
Answer each item with its documented IC50.

Here is how some compounds turned out for IC50.
>>> measurement("CC(C)(C)c1ccc(NC(=O)NCCCN(CCCN2CCOCC2)CC2(O)CCN(c3nc(Cl)nc4[nH]ncc34)C2)cc1 (stereo not drawn)")
"18.9 µM"
>>> measurement("CC(C)(C)c1ccc(NC(=O)NCCCN(CCO)CC2(O)CCN(c3nc(N)nc4[nH]cnc34)C2)cc1 (stereo not drawn)")
"31.2 µM"
>>> measurement("CC(C)N(CCCNC(=O)Nc1ccc(C(C)(C)C)cc1)CC1CCCN(c2ncnc3[nH]cnc23)C1 (stereo not drawn)")
"64.7 µM"
>>> measurement("CC(C)N(CCCNC(=O)Nc1ccc(C(C)(C)C)cc1)CC1(O)CCN(c2nc(Cl)nc3[nH]ccc23)C1 (stereo not drawn)")
"17.6 µM"
>>> measurement("CN(CCCNC(=O)Nc1ccc(C(C)(C)C)cc1)CC1CCCN(C(=O)c2ccc[nH]c2=O)C1 (stereo not drawn)")
"66.3 µM"

Field: IC50. Fill in for each record below.
1. CC(C)(C)c1ccc(NC(=O)NCCCN(CCO)CC2(O)CCN(c3ncnc4[nH]cc(Br)c34)C2)cc1 (stereo not drawn)
2. CC(C)(C)c1ccc(NC(=O)NCCCN(CCC(=O)N2CCOCC2)CC2(O)CCN(c3ncnc4[nH]cnc34)C2)cc1 (stereo not drawn)
3. CN(CCCNC(=O)Nc1ccc(C(C)(C)C)cc1)CC1CCCN(C(=O)c2cnccn2)C1 (stereo not drawn)

### Response
["41.3 µM", "> 100 µM", "> 100 µM"]

====

Assay: AUC (0 to t) in male Sprague-Dawley rat at 20 mg/kg, ip measured after 24 hrs by LC-MS/MS analysis
Format: ADME, organism-based
Settings: in vivo
quantity.name: AUC(0-t) at 24 h
Reply with the number and its unit after it.

### Prompt For CC(C)(C)c1ccc(NC(=O)NCCCN(CCCN2CCOCC2)CC2(O)CCN(c3nc(Cl)nc4sccc34)C2)cc1 (stereo unspecified) , what is its reported AUC(0-t) at 24 h?
### Response 5280 ng·h/mL

====

Answer each item with its documented pIC50.
Tested on: NCI-H460
Experiment: Antiproliferative activity against human NCI-H460 cells harboring wildtype DOT1L (unknown origin) (1 to 416 residues) assessed as inhibition of cell proliferation incubated for 72 hrs by CCK-8 assay
Assay type: functional, cell-based
Settings: NCI-H460, 72 h
pIC50: −log10 of the molar value.

Here is how some compounds turned out for pIC50.
>>> measurement("CC(C)(C)C(=O)Nc1ccc2[nH]c(CN3CCC(N(CCCN4CCOCC4)CC4CCCN(c5nc(Cl)nc6[nH]ncc56)C4)CC3)nc2c1 (stereo not drawn)")
"< 4.00"
>>> measurement("CC(C)(C)c1ccc(NC(=O)NCCCN(CCC(=O)N2CCSCC2)CC2(O)CCN(c3ncnc4[nH]cnc34)C2)cc1 (stereo not drawn)")
"< 4.00"

Now turn to the next compound.
### Prompt For CC(C)(C)C(=O)Nc1ccc2[nH]c(CN3CCC(N(CCCN4CCOCC4)CC4CCCN(C(=O)c5cnccn5)C4)CC3)nc2c1 (stereo not drawn) , what is its reported pIC50?
### Response < 4.00

====

System: NCI-H460
Test: Antiproliferative activity against human NCI-H460 cells harboring wildtype DOT1L (unknown origin) (1 to 416 residues) assessed as inhibition of cell proliferation incubated for 72 hrs by CCK-8 assay
Assay type: functional, cell-based
Details: NCI-H460, 72 h
quantity.name: IC50

>>> measurement("CC(C)(C)c1ccc(NC(=O)NCCCN(CCCN2CCOCC2)CC2(O)CCN(c3ncnc4[nH]cnc34)C2)cc1 (stereo not drawn)")
"> 100 µM"
>>> measurement("CC(C)(C)C(=O)Nc1ccc2[nH]c(CN3CCC(N(CCCN4CCOCC4)CC4CCCN(c5cc(C#N)ccn5)C4)CC3)nc2c1 (stereo not drawn)")
"> 100 µM"

Now turn to the next compound.
### Prompt For CC(C)(C)c1ccc(NC(=O)NCCCN(CCCN2CCOCC2)CC2(O)CCN(c3nc(N)nc4[nH]cnc34)C2)cc1 (stereo not drawn) , what is its reported IC50?
### Response > 100 µM

====

Test system: NCI-H460
Test: Antiproliferative activity against human NCI-H460 cells harboring wildtype DOT1L (unknown origin) (1 to 416 residues) assessed as inhibition of cell proliferation incubated for 72 hrs by CCK-8 assay
Format: functional, cell-based
Details: NCI-H460, 72 h
Answer each item with its documented IC50.

Here is how some compounds turned out for IC50.
>>> measurement("COC(=O)CCN(CCCNC(=O)Nc1ccc(C(C)(C)C)cc1)CC1(O)CCN(c2ncnc3[nH]cnc23)C1 (stereo not drawn)")
"> 100 µM"
>>> measurement("CC(C)(C)C(=O)Nc1ccc2[nH]c(CN3CCC(N(CCCN4CCOCC4)CC4CCCN(c5nc(Cl)nc6[nH]cnc56)C4)CC3)nc2c1 (stereo not drawn)")
"> 100 µM"

### Prompt For CC(C)N(CCCNC(=O)Nc1ccc(C(C)(C)C)cc1)CC1CCCN(c2cc(C#N)ccn2)C1 (stereo not drawn) , what is its reported IC50?
### Response > 100 µM

Hey, just so you know, these numbers are from ChEMBL document CHEMBL5608241.
